- System under test: T1, Rpn1 (412–625) (yeast, UniProt P38764 412-625)
- T1 sequence (looked up): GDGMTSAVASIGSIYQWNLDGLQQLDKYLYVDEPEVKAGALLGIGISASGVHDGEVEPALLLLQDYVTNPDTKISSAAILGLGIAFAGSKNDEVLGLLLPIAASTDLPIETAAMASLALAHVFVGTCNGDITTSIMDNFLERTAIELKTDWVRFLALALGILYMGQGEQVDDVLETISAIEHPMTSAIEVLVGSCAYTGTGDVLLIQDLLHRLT
- Test name: ITC
Assay metric: Kd (nM)
Supply the numeric figure in nM, leaving out any unit text.

Input line: Consider the binder Rad23 UBL domain (amino acids 1–78) (domain or fragment, yeast, UniProt P32628 1-78, looked up) MVSLTFKNFKKEKVPLDLEPSNTILETKTKLAQSISCEESQIKLIYSGKVLQDSKTVSECGLKDGDQVVFMVSQKKST . State its measured Kd.
Output line: 64
